# target-desc: human MRGPRX2 (Homo sapiens, UniProt Q96LB1)
# Sequence (Q96LB1 1-330): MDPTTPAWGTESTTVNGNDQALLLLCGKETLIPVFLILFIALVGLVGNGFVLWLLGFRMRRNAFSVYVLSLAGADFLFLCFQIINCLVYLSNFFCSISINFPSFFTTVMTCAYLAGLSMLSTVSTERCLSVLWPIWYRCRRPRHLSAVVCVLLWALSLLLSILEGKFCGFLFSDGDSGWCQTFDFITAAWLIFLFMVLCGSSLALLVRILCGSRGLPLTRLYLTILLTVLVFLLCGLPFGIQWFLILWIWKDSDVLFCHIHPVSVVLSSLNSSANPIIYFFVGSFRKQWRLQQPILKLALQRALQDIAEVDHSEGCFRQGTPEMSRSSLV
# assay-info: Ca2+ mobilization assay (FLIPR TETRA): inhibition of Cortistatin-14 mediated MRGPRX2 activation
reported-endpoint: IC50

>  <molecule>
CC(C(=O)Nc1cnc(Oc2ccc(F)cc2F)cn1)N1CCC(F)(F)C(c2cc[n+]([O-])c(C(N)=O)c2)C1 (stereo not shown) [Example 260]

>  <observed-result>
≤ 10 nM

$$$$
>  <molecule>
C[C@@H](C(=O)Nc1ccc(Oc2c(F)cc(F)cc2F)cn1)N1CCC(F)(F)[C@@H](c2cc[n+]([O-])cc2)C1 [Example 123]

>  <observed-result>
≤ 10 nM

$$$$
>  <molecule>
C[C@@H](C(=O)Nc1ccc(Oc2c(F)cccc2F)cn1)N1CCC(F)(F)[C@@H](c2cc[n+]([O-])cc2)C1 [Example 130]

>  <observed-result>
≤ 10 nM

$$$$
>  <molecule>
CC(C)n1cc(C2CN([C@@H](C)C(=O)Nc3ccc(F)cn3)CCC2(F)F)ccc1=O (stereo partly shown) [Example 194]

>  <observed-result>
100 to 3160 nM

$$$$
>  <molecule>
C[C@@H](C(=O)Nc1ccc(OCC2CC2)nn1)[C@H]1CCC(F)(F)[C@@H](c2ccc(=O)[nH]c2)C1 [Example 276]

>  <observed-result>
10 to 100 nM

$$$$
>  <molecule>
CC(C(=O)Nc1ncc(Oc2ccc(F)cc2F)cc1F)N1CCC(F)(F)[C@@H](c2ccc(=O)[nH]c2)C1 (stereo partly shown) [Example 87]

>  <observed-result>
≤ 10 nM

$$$$
>  <molecule>
CNCc1cc([C@H]2CN([C@@H](C)C(=O)Nc3cnc(Oc4ccc(F)cc4F)cn3)CCC2(F)F)c[nH]c1=O [Example 244]

>  <observed-result>
≤ 10 nM

$$$$

* * *

# target-desc: human MRGPRX2 (Homo sapiens, UniProt Q96LB1)
# assay-info: Ca2+ mobilization assay (FLIPR TETRA): inhibition of Cortistatin-14 mediated MRGPRX2 activation
pIC50: −log10 of the molar value.
The following compounds are listed with their measured pIC50 values.
reported-endpoint: pIC50

>  <compound>
C[C@@H](C(=O)Nc1ccc(Oc2ccc(F)cc2F)cn1)N1CCC(F)(F)[C@@H](c2c[nH]c(=O)c(CN3CCC(F)(F)CC3)c2)C1

>  <target-desc>
human MRGPRX2 (Homo sapiens, UniProt Q96LB1)

>  <observed-result>
≥ 8.00

$$$$
>  <compound>
C[C@@H](C(=O)Nc1ccc(F)cn1)N1CCC(F)(F)[C@@H](c2cc[n+]([O-])c(CC(F)(F)F)c2)C1

>  <target-desc>
human MRGPRX2 (Homo sapiens, UniProt Q96LB1)

>  <observed-result>
7.00 to 8.00

$$$$
>  <compound>
C[C@@H](C(=O)Nc1ccc(Oc2ccc(F)cc2F)cn1)N1CCC(F)(F)C(c2ccnc(C(N)=O)c2)C1 (mixture of isomers)

>  <target-desc>
human MRGPRX2 (Homo sapiens, UniProt Q96LB1)

>  <observed-result>
≥ 8.00

$$$$
